experiment_summary: NF-kB reporter activators, TNF-alpha stimulated, counter-screen for STAT1 activator project, cell-based, HEK293T, luciferase luminescence (AID 1306);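 note: TNF-alpha given at a submaximal dose yielding about 80% of full reporter signal; values are well signal over median control so 100% means no change and 0% no light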
run_parameters: at 5.7 µM, stronger effect = higher value, 100% = TNF-alpha with vehicle only
The other results are listed elsewhere or left out.
Provide the recorded activation (% of control) for the entries that follow.
Give bare numbers, in %.

[[record]]
molecule = "Cc1cccc(-c2noc(-c3ccc(F)cc3)n2)c1"
val = 133

[[record]]
molecule = "CCC(=O)NC(=Nc1nc2ccccc2s1)NC(=O)CC"
val = 138


Can you give me activation (% of control) for all of these, one by one?
1. CC(C)(C)C(=O)c1cnc(Nc2ccccc2)s1
2. Cc1cccc(NC(=O)Nc2ccc3c(c2)OCO3)n1
3. COc1cc(/C=N/O)ccc1OCc1ccc([N+](=O)[O-])cc1
4. Cc1cccc(N=Nc2c(O)[nH]c3ccc(F)cc23)c1
5. Cc1ccccc1Nc1nc(N)nc(CSc2ccccc2)n1
6. Cc1ccc(NC(=O)Nc2ccccc2)c(Br)c1

Response given:
121
133
131
135
126
124

Can you give me activation (% of control) for all of these, one by one?
1. Cn1nnc2cc(C(=O)NCCC3=CCCCC3)ccc21
2. O=C(Nc1ccc(-c2nnc(-c3ccccc3)o2)cc1)C1CCCO1 (stereo unspecified)
3. COc1ccc(NC(=O)/C(Cl)=C(/Cl)S(=O)Cc2ccc(C)cc2)cn1 (stereo unspecified)
4. COc1ccc2oc(-c3cccc(NC(=O)CSc4ccc(Cl)cc4)c3)nc2c1

Response given:
1: 117; 2: 122; 3: 51.5; 4: 140

Can you give me activation (% of control) for all of these, one by one?
1. COc1ccc(CS(=O)/C(Cl)=C(/Cl)C(=O)Nc2ccc(OC)nc2)cc1 (stereo unspecified)
2. Cc1ccc(NC(=O)c2csc3c2CCCC3)cc1
3. COc1ccc(-n2nnnc2-c2nc3ccccc3s2)cc1
4. COc1ccc(-c2csc(-c3cccs3)n2)cc1OC

Response given:
1. 67.4
2. 140
3. 117
4. 136

* * *

Provide the recorded inhibition for the entries that follow.
target: Nuclear receptor coactivator 3 (Homo sapiens)
experiment_summary: SRC3 coactivator transcriptional activity inhibitors, confirmation, cell-based, luminescence, quadruplicate (AID 588792);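 note: 0% = DMSO treated cells and 100% = gossypol at 36 µM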
run_parameters: HEK293 GAL4-SRC3 luciferase reporter, at 3.6 µM, stronger effect = higher value
Answers are plain numbers, in %.

Some solved entries appear below for comparison.
[[record]]
compound = "CC1CCN(c2nc3ccc(C(=O)O)cc3s2)CC1"
measurement_units = "%"
val = 10.7

[[record]]
compound = "O=C(NC1CCCCC1)C(c1cccnc1)N(C(=O)CCl)c1ccccc1Cl (configuration not stated)"
measurement_units = "%"
val = 81.8

[[record]]
compound = "Cn1c(/C=C/c2ccc(Cl)cc2Cl)c([N+](=O)[O-])c(=O)n(C)c1=O"
measurement_units = "%"
val = 62.2

[[record]]
compound = "Cc1c(C(C)NC(=O)c2cc(COc3cccc4cnccc34)on2)cnn1C (configuration not stated)"
measurement_units = "%"
val = 32.4

[[record]]
compound = "Nc1nc(N)c2c(ccc3c2ccn3Cc2cccc([N+](=O)[O-])c2)n1"
measurement_units = "%"
val = 76.1

[[record]]
compound = "Cc1nc(SCC(=O)NCc2ccc3c(c2)OCO3)c(C#N)c2c1CCCC2"
measurement_units = "%"
val = -21.9

[[record]]
compound = "COc1ccc([C@@]23Oc4cc(OC)cc(OC)c4[C@]2(O)[C@H](O)[C@H](C(=O)N(C)C)[C@H]3c2ccccc2)cc1"
measurement_units = "%"
val = 95.7

[[record]]
compound = "COc1ccc(C(C(=O)NC2CCCCC2)N(C(=O)CCl)c2ccc(Cl)cc2)cc1 (configuration not stated)"
measurement_units = "%"
val = 54.1


Can you give me inhibition for all of these, one by one?
1. COc1ccc(N/N=C(\C#N)C(=N)SCc2ccccc2)cc1
2. CC(=O)Nc1ccc(S(=O)(=O)Nc2ccc(N3CCCCC3)cc2)cc1
3. Cc1cc(Sc2nnc(/N=C/N(C)C)s2)c2ccccc2n1
4. O=C(N/N=C/c1c(O)ccc2ccccc12)c1cccnc1
5. CN1CCN(S(=O)(=O)c2ccc(Sc3nnnn3-c3ccccc3)c([N+](=O)[O-])c2)CC1

Response given:
1: 25.9; 2: -3.95; 3: 9.12; 4: 71.2; 5: 24.5

Can you give me inhibition for all of these, one by one?
1. CCCN(CC(=O)Nc1ccccc1C)C(=O)CCl
2. CCOC(=O)c1c(C)[nH]c(C(=O)N/N=C\c2ccccc2O)c1C

Response given:
1. 74.9
2. 11.6

Can you give me inhibition for all of these, one by one?
1. CN(C(=O)COc1ccccc1C(=O)NCCOc1ccccc1)c1ccccc1
2. CCCC(=O)NC(c1ccc(OC)cc1)c1ccc2cccnc2c1O (configuration not stated)
3. CCOc1cc(Br)cc(/C=N/NC(=O)c2cccnc2)c1O
4. N#Cc1c(N)n(C2OC(CO)C(O)C2O)c2ncnc(N)c12 (configuration not stated)

Response given:
1: 20.1; 2: 57.7; 3: 33; 4: 96

Can you give me inhibition for all of these, one by one?
1. Cc1nc(SCC(=O)NNC(=O)c2ccc(F)cc2)c2ccccc2n1
2. CCc1ccc(-c2cc(C(F)(F)F)n3nc(C(=O)Nc4cnn(Cc5ccc(C)cc5)c4)cc3n2)s1
3. CC[C@@]1(O)C(=O)OCc2c1cc1n(c2=O)Cc2cc3c(N)cccc3nc2-1

Response given:
[-5.28, 10.1, 91.8]

* * *

Tested on: transactivating tegument protein VP16 (Human herpesvirus 1)
experiment_summary: VP16 transactivation reporter inhibitors, counter-screen for SRC2 inhibitor project, cell-based, luminescence, single concentration (AID 652007)
run_parameters: cell-based VP16 transactivation luciferase reporter, at 8.9 µM, stronger effect = higher value
readout_name: inhibition (%)
Answers are plain numbers, in %.

Some solved entries appear below for comparison.
[[record]]
molecule = "O=C(CCl)N1N=C(c2ccco2)CC1c1ccco1 (stereo not given)"
measurement_units = "%"
val = 36.6

[[record]]
molecule = "CC(C)c1ccc(/C=C(\\c2nc3ccccc3[nH]2)S(=O)(=O)c2ccccc2)cc1"
measurement_units = "%"
val = 36.6

[[record]]
molecule = "Cc1cc(C(=O)CSc2nnc3ccccn23)c(C)n1-c1ccccc1"
measurement_units = "%"
val = 34.8

[[record]]
molecule = "Cc1c(C)n(Cc2ccccc2)c2ncnc(Cl)c12"
measurement_units = "%"
val = 19.1

[[record]]
molecule = "CC(C)c1cc(CNC(=O)c2ccc(OC3CCN(Cc4ccccn4)CC3)cc2)on1"
measurement_units = "%"
val = -9.72

[[record]]
molecule = "CCN(CC)CCNC(=O)c1ccc(NC(=O)c2ccc(S(=O)(=O)N3CCCC3)cc2)cc1"
measurement_units = "%"
val = -4.61

[[record]]
molecule = "Cc1ccc2c(c1)N(C(C)C(=O)NCc1ccc3c(c1)OCO3)C(=O)CO2 (stereo not given)"
measurement_units = "%"
val = -10.5

[[record]]
molecule = "CSc1nnc(NC(=O)c2nc(S(=O)(=O)Cc3cccc(C)c3)ncc2Cl)s1"
measurement_units = "%"
val = 41.9

[[record]]
molecule = "O=C(NCCc1ccccc1)c1ccc2c(c1)OCCCO2"
measurement_units = "%"
val = 78.8


Please look at the following molecule next.
Challenge: For COc1ccc(-n2c(SCC(=O)NN=Cc3c(O)ccc4ccccc34)nnc2-c2ccc(C(C)(C)C)cc2)cc1 , write its inhibition.
Response given: -13

* * *

target: Nuclear receptor coactivator 3 (Homo sapiens) (UniProt Q9Y6Q9)
Sequence (Q9Y6Q9 whole entry, looked up): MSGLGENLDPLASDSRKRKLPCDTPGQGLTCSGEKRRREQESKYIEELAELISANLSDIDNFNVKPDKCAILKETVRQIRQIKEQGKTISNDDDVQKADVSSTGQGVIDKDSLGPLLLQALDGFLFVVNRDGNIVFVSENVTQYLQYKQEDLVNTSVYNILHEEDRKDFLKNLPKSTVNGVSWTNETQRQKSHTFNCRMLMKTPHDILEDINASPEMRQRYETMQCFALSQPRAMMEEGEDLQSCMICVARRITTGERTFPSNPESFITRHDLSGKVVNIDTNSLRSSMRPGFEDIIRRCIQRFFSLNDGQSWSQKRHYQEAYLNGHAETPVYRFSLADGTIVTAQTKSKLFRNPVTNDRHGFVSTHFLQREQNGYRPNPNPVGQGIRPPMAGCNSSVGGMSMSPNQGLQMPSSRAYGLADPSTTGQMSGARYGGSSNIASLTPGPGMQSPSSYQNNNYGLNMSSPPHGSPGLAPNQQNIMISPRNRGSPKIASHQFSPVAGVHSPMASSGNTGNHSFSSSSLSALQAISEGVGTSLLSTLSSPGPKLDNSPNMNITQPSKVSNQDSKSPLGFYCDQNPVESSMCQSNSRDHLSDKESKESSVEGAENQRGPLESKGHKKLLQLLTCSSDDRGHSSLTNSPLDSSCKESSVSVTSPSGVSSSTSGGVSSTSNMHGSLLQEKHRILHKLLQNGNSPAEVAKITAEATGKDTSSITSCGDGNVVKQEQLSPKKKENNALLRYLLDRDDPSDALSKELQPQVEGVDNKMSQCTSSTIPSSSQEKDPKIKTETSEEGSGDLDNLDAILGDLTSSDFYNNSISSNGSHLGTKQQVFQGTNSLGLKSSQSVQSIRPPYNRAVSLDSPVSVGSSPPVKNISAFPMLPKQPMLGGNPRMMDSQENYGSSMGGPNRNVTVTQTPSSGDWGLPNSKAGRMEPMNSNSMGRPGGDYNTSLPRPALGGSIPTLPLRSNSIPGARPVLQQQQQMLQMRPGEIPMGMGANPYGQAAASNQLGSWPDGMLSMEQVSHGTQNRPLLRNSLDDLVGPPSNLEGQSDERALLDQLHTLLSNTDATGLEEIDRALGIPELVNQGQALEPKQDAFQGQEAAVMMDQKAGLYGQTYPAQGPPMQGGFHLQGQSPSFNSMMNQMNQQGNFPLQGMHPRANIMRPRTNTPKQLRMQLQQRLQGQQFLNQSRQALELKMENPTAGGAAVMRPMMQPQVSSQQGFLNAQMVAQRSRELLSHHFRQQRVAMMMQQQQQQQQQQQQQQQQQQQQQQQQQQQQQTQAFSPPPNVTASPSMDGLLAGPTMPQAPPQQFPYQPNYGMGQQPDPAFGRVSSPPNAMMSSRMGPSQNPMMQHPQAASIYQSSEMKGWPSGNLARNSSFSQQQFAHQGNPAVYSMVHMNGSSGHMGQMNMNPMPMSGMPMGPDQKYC
experiment_summary: SRC3 coactivator transcriptional activity inhibitors, confirmation, cell-based, luminescence, quadruplicate (AID 588792);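 note: 0% = DMSO treated cells and 100% = gossypol at 36 µM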
run_parameters: HEK293 GAL4-SRC3 luciferase reporter, at 3.6 µM
Calls of active or inactive are those of the source.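 Rule for the calls: active = mean inhibition over 43.08%, the solvent-only control mean plus 3 SD; inactive = the rest.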
Answer with one of the outcomes active, inactive

[[record]]
molecule = "Brc1ccc(C2=Nn3c(nnc3-c3n[nH]c4c3CCC4)SC2)cc1"
label_value = "inactive"

[[record]]
molecule = "N=c1c2c(n(Cc3ccc(Cl)cc3)c3c1CCC3)CCC2"
label_value = "active"

[[record]]
molecule = "O=c1cnnc(N/N=C/c2ccccn2)[nH]1"
label_value = "active"

[[record]]
molecule = "CCOC(=O)c1c(C)n(C)c2ccc(OC)c(NC(=O)c3cccs3)c12"
label_value = "inactive"


Challenge: Assay outcome for O=c1[nH]cc(F)c(=O)[nH]1 : what was it?
Response given: inactive

Challenge: Assay outcome for COc1cc(C(=O)Nc2nc(-c3cccs3)cs2)cc(OC)c1OC : what was it?
Response given: inactive

Challenge: Assay outcome for S=c1[nH]nc(C2CCCCC2)n1/N=C/c1ccncc1 : what was it?
Response given: active

Challenge: Assay outcome for COc1ccc(/C=C(\C#N)C(=O)OCC(=O)N(C)C2CCS(=O)(=O)C2)cc1 (stereo not drawn) : what was it?
Response given: inactive

Challenge: Assay outcome for CC(=O)N(C(C)=O)c1ncc2c([nH]c3ccccc32)c1C#N : what was it?
Response given: active

Challenge: Assay outcome for COc1ccc(S(=O)(=O)N2CCCCCC2)cc1C(=O)N(C)CC(=O)Nc1cc(C)ccc1C : what was it?
Response given: inactive

Challenge: Assay outcome for O=C(NCc1ccco1)c1cccc(NC(=O)c2ccccc2)c1 : what was it?
Response given: inactive

Challenge: Assay outcome for CCCc1nc2c(=O)n(C)c(=O)nc-2n(C)n1 : what was it?
Response given: active
